Test: Dynamic Vapor Sorption (DVS), hygroscopicity, with XRPD of the post-DVS solid
Format: physicochemical
Conditions: DVS, assessed from mass uptake at 90% RH
Reported property: hygroscopic nature by DVS analysis

Compound: CC(CCOc1cccc(CC(=O)O)c1)N(Cc1cccc(C(F)(F)F)c1Cl)CC(c1ccccc1)c1ccccc1 (stereo not shown) [Form 6]
Reported property: hygroscopic nature by DVS analysis
Observed value: slightly hygroscopic
--
Compound: CC(CCOc1cccc(CC(=O)O)c1)N(Cc1cccc(C(F)(F)F)c1Cl)CC(c1ccccc1)c1ccccc1 (stereo not shown) [Form 5]
Reported property: hygroscopic nature by DVS analysis
Observed value: slightly hygroscopic
--
Compound: CC(CCOc1cccc(CC(=O)O)c1)N(Cc1cccc(C(F)(F)F)c1Cl)CC(c1ccccc1)c1ccccc1 (stereo not shown) [Form 4]
Reported property: hygroscopic nature by DVS analysis
Observed value: slightly hygroscopic
